The measurements presented in this section are drawn from patent US9993002B2.

Entries and their Primary root lenght values follow.
# System: Arabidopsis thaliana (wild-type Col-0)
# assay text: Root growth and lateral root formation of Arabidopsis
# Format: in vivo
# cond: 10 nM, two weeks after transfer

- molecule: "COCCCNC(=O)Nc1cnns1"
  target desc: "Arabidopsis thaliana (wild-type Col-0)"
  Primary root lenght: "40 (±10) mm"
- molecule: "C#CCNC(=O)Nc1cnns1"
  target desc: "Arabidopsis thaliana (wild-type Col-0)"
  Primary root lenght: "40 (±10) mm"
- molecule: "O=C(NCCCl)Nc1cnns1"
  target desc: "Arabidopsis thaliana (wild-type Col-0)"
  Primary root lenght: "36 (±8) mm"
- molecule: "O=C(NCC1CCCO1)Nc1cnns1 (centres unmarked)"
  target desc: "Arabidopsis thaliana (wild-type Col-0)"
  Primary root lenght: "44 (±16) mm"
- molecule: "COCCNC(=O)Nc1cnns1"
  target desc: "Arabidopsis thaliana (wild-type Col-0)"
  Primary root lenght: "48 (±15) mm"

get_value(item= CC(O)CNC(=O)Nc1cnns1 (centres unmarked) , readout=Primary root lenght) returns 35 (±0.8) mm

get_value(item= "C/C(=C\CNC(=O)Nc1cnns1)CO" , readout=Primary root lenght) returns 32 (±9) mm

get_value(item= "O=C(NCc1ccco1)Nc1cnns1" , readout=Primary root lenght) returns 30 (±6) mm

get_value(item= "O=C(NCCCO)Nc1cnns1" , readout=Primary root lenght) returns 39 (±9) mm

get_value(item= C=CCNC(=O)Nc1cnns1 [Compound 50, 1-Allyl-3-[1,2,3]thiadiazol-5-yl-urea] , readout=Primary root lenght) returns 42 (±12) mm

get_value(item= O=C(Nc1ccccc1)Nc1cnns1 [TDZ, thidiazuron, reference compound] , readout=Primary root lenght) returns 10 (±4) mm
